- Measured Target: RUNX1 (Homo sapiens, UniProt Q01196 1-453)
- Sequence (Q01196 whole entry): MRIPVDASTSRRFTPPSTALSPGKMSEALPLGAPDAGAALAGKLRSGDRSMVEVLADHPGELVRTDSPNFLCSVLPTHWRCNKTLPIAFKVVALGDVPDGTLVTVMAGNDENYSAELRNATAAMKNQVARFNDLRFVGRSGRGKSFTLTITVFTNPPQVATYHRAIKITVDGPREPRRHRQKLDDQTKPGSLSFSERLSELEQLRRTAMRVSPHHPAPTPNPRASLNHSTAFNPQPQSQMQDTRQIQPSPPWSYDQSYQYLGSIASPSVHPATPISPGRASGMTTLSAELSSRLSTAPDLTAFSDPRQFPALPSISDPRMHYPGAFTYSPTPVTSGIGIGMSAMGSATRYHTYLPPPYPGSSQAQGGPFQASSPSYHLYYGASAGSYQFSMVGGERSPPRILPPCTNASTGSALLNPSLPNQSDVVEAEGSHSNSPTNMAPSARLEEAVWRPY
- Protocol Summary: custom PBM; custom protein-binding microarray; buffer, salt, pH and temperature not stated; high values mean tight binding
- Stated Conditions: dsDNA, one strand shown
Can you tell me binding signal for the items I'm about to list?

Query string: Given GCGCACATTTCCCGCAAATCATACACGCACACATACACATACACACATACACATACGCAC , state its recorded binding signal.
Result string: 11.1 log fluorescence intensity

Query string: Given CGCGCACTCTGTGGTTGCTCACATACGCACACATACACATACACACATACACATACGCAC , state its recorded binding signal.
Result string: 11.4 log fluorescence intensity

Query string: Given CGCGCACTCTGTGGTTTCGCACATACGCACACATACACATACACACATACACATACGCAC , state its recorded binding signal.
Result string: 12.3 log fluorescence intensity

Query string: Given GCATACGGCTGACGTCAGCAACATACGCACACATACACATACACACATACACATACGCAC , state its recorded binding signal.
Result string: 10.9 log fluorescence intensity

Query string: Given CGCGCACTCTCTGGTTGCGCACATACGCACACATACACATACACACATACACATACGCAC , state its recorded binding signal.
Result string: 10.9 log fluorescence intensity

Query string: Given GCGCACATTTCACGTAAATCATACACGCACACATACACATACACACATACACATACGCAC , state its recorded binding signal.
Result string: 10.9 log fluorescence intensity

Query string: Given GCATACGGCTGACGTCAGACACATACGCACACATACACATACACACATACACATACGCAC , state its recorded binding signal.
Result string: 10.9 log fluorescence intensity

Query string: Given CGCGCACTCTGTGGATGCGCACATACGCACACATACACATACACACATACACATACGCAC , state its recorded binding signal.
Result string: 10.9 log fluorescence intensity

Query string: Given GCATACGGCTGACGGCAGCCACATACGCACACATACACATACACACATACACATACGCAC , state its recorded binding signal.
Result string: 10.9 log fluorescence intensity

Query string: Given GCATACGGCTGTCGTCAGCCACATACGCACACATACACATACACACATACACATACGCAC , state its recorded binding signal.
Result string: 10.9 log fluorescence intensity

Query string: Given GCATACGGCTGACGTCAACCACATACGCACACATACACATACACACATACACATACGCAC , state its recorded binding signal.
Result string: 11 log fluorescence intensity

Query string: Given CGCGCATTCTGTGGTTGCGCACATACGCACACATACACATACACACATACACATACGCAC , state its recorded binding signal.
Result string: 11.4 log fluorescence intensity

Query string: Given GCATACGACTGACGTCAGCCACATACGCACACATACACATACACACATACACATACGCAC , state its recorded binding signal.
Result string: 11 log fluorescence intensity

Query string: Given CGCGCACTCTGTGCTTGCGCACATACGCACACATACACATACACACATACACATACGCAC , state its recorded binding signal.
Result string: 10.9 log fluorescence intensity

Query string: Given GCGCACATTTCCCATAAATCATACACGCACACATACACATACACACATACACATACGCAC , state its recorded binding signal.
Result string: 11 log fluorescence intensity

Query string: Given CGCGCACTCTGTGGTCGCGCACATACGCACACATACACATACACACATACACATACGCAC , state its recorded binding signal.
Result string: 11.3 log fluorescence intensity

Query string: Given GCGCACTTTTCCCGTAAATCATACACGCACACATACACATACACACATACACATACGCAC , state its recorded binding signal.
Result string: 11 log fluorescence intensity

Query string: Given GCATACGGCTGACGTGAGCCACATACGCACACATACACATACACACATACACATACGCAC , state its recorded binding signal.
Result string: 10.9 log fluorescence intensity

###

Can you tell me binding signal for the items I'm about to list?
- Measured Target: RUNX1 (Homo sapiens, UniProt Q01196 1-453)
- Protocol Summary: custom PBM; custom protein-binding microarray; buffer, salt, pH and temperature not stated; high values mean tight binding
- Stated Conditions: dsDNA, one strand shown

Query string: Given GCATACGGCTGCCGTCAGCCACATACGCACACATACACATACACACATACACATACGCAC , state its recorded binding signal.
Result string: 11 log fluorescence intensity

Query string: Given GCGCACATTTCCCTTAAATCATACACGCACACATACACATACACACATACACATACGCAC , state its recorded binding signal.
Result string: 11 log fluorescence intensity

Query string: Given GCATACGGCTGACGTAAGCCACATACGCACACATACACATACACACATACACATACGCAC , state its recorded binding signal.
Result string: 11 log fluorescence intensity

Query string: Given GCATACGGCTCACGTCAGCCACATACGCACACATACACATACACACATACACATACGCAC , state its recorded binding signal.
Result string: 10.9 log fluorescence intensity

Query string: Given GCGCACATTTCCCGTATATCATACACGCACACATACACATACACACATACACATACGCAC , state its recorded binding signal.
Result string: 11 log fluorescence intensity

Query string: Given GCATACCGCTGACGTCAGCCACATACGCACACATACACATACACACATACACATACGCAC , state its recorded binding signal.
Result string: 10.9 log fluorescence intensity

Query string: Given CGCGCACTCTGTGGTTGGGCACATACGCACACATACACATACACACATACACATACGCAC , state its recorded binding signal.
Result string: 11.6 log fluorescence intensity

Query string: Given CGCGCACTGTGTGGTTGCGCACATACGCACACATACACATACACACATACACATACGCAC , state its recorded binding signal.
Result string: 11 log fluorescence intensity

Query string: Given GCGCACATTTCCCGTCAATCATACACGCACACATACACATACACACATACACATACGCAC , state its recorded binding signal.
Result string: 11 log fluorescence intensity

###

Can you tell me binding signal for the items I'm about to list?
- Measured Target: RUNX1 (Homo sapiens, UniProt Q01196 1-453)
- Protocol Summary: custom PBM; custom protein-binding microarray; buffer, salt, pH and temperature not stated; high values mean tight binding
- Stated Conditions: dsDNA, one strand shown

Query string: Given GCGCACATTTCCCGTAAACCATACACGCACACATACACATACACACATACACATACGCAC , state its recorded binding signal.
Result string: 11 log fluorescence intensity

Query string: Given CGCGCAGTCTGTGGTTGCGCACATACGCACACATACACATACACACATACACATACGCAC , state its recorded binding signal.
Result string: 11.4 log fluorescence intensity

Query string: Given CGCGCTCTCTGTGGTTGCGCACATACGCACACATACACATACACACATACACATACGCAC , state its recorded binding signal.
Result string: 11.4 log fluorescence intensity

Query string: Given GCGCACATTTCCGGTAAATCATACACGCACACATACACATACACACATACACATACGCAC , state its recorded binding signal.
Result string: 11 log fluorescence intensity

Query string: Given GCATACAGCTGACGTCAGCCACATACGCACACATACACATACACACATACACATACGCAC , state its recorded binding signal.
Result string: 11 log fluorescence intensity

Query string: Given GCGCACATTTCCCGTAAAGCATACACGCACACATACACATACACACATACACATACGCAC , state its recorded binding signal.
Result string: 11 log fluorescence intensity

Query string: Given CGCGCACTCTGTGGGTGCGCACATACGCACACATACACATACACACATACACATACGCAC , state its recorded binding signal.
Result string: 10.9 log fluorescence intensity

Query string: Given CGCGCACTATGTGGTTGCGCACATACGCACACATACACATACACACATACACATACGCAC , state its recorded binding signal.
Result string: 11.3 log fluorescence intensity

Query string: Given CGCGCGCTCTGTGGTTGCGCACATACGCACACATACACATACACACATACACATACGCAC , state its recorded binding signal.
Result string: 11.2 log fluorescence intensity

Query string: Given CGCGCACTCTGTGGTTGTGCACATACGCACACATACACATACACACATACACATACGCAC , state its recorded binding signal.
Result string: 11.3 log fluorescence intensity

Query string: Given CGCGCACTTTGTGGTTGCGCACATACGCACACATACACATACACACATACACATACGCAC , state its recorded binding signal.
Result string: 11.6 log fluorescence intensity

Query string: Given CGCGCAATCTGTGGTTGCGCACATACGCACACATACACATACACACATACACATACGCAC , state its recorded binding signal.
Result string: 11.1 log fluorescence intensity

Query string: Given GCGCACATTTCCAGTAAATCATACACGCACACATACACATACACACATACACATACGCAC , state its recorded binding signal.
Result string: 10.9 log fluorescence intensity

Query string: Given CGCGCACCCTGTGGTTGCGCACATACGCACACATACACATACACACATACACATACGCAC , state its recorded binding signal.
Result string: 11.4 log fluorescence intensity

Query string: Given GCGCACATTTCCCGTAACTCATACACGCACACATACACATACACACATACACATACGCAC , state its recorded binding signal.
Result string: 11 log fluorescence intensity

Query string: Given GCGCACATTGCCCGTAAATCATACACGCACACATACACATACACACATACACATACGCAC , state its recorded binding signal.
Result string: 10.9 log fluorescence intensity

Query string: Given GCGCACATTTCTCGTAAATCATACACGCACACATACACATACACACATACACATACGCAC , state its recorded binding signal.
Result string: 10.9 log fluorescence intensity

Query string: Given CGCGCACGCTGTGGTTGCGCACATACGCACACATACACATACACACATACACATACGCAC , state its recorded binding signal.
Result string: 11.2 log fluorescence intensity

Query string: Given GCGCACATTTCCCGTAAATTATACACGCACACATACACATACACACATACACATACGCAC , state its recorded binding signal.
Result string: 10.9 log fluorescence intensity

Query string: Given GCGCACATTTGCCGTAAATCATACACGCACACATACACATACACACATACACATACGCAC , state its recorded binding signal.
Result string: 10.9 log fluorescence intensity

Query string: Given CGCGCACTCTGTGGTTCCGCACATACGCACACATACACATACACACATACACATACGCAC , state its recorded binding signal.
Result string: 11.4 log fluorescence intensity

Query string: Given GCATACGGCTGGCGTCAGCCACATACGCACACATACACATACACACATACACATACGCAC , state its recorded binding signal.
Result string: 11 log fluorescence intensity

Query string: Given GCATACGGCCGACGTCAGCCACATACGCACACATACACATACACACATACACATACGCAC , state its recorded binding signal.
Result string: 11 log fluorescence intensity

Query string: Given GCATACGGCTGACGTCAGCCACATACGCACACATACACATACACACATACACATACGCAC , state its recorded binding signal.
Result string: 11 log fluorescence intensity

Query string: Given GCGCACATTTCCCGTACATCATACACGCACACATACACATACACACATACACATACGCAC , state its recorded binding signal.
Result string: 11 log fluorescence intensity

Query string: Given GCGCACATTCCCCGTAAATCATACACGCACACATACACATACACACATACACATACGCAC , state its recorded binding signal.
Result string: 11 log fluorescence intensity

Query string: Given CGCGCACTCTGTGGTGGCGCACATACGCACACATACACATACACACATACACATACGCAC , state its recorded binding signal.
Result string: 11.1 log fluorescence intensity
